Assay: Effective concentration in vitro against HIV-1-infected CEM cells relative to uninfected untreated controls
VALUE KIND: log10 of EC50 (log10 of the value in nM)
Could you please treat all values as log10 of EC50 in nM?

# return recorded log10 of EC50 for entry CO[C@H]1N([C@H]2C[C@H](N=[N+]=[N-])[C@@H](CO)O2)C(=O)NC(=O)C1(C)Cl (stereo partly specified)
3.76

Consider the compound CO[C@H]1N(C2CC(N=[N+]=[N-])C(CO)O2)C(=O)NC(=O)[C@]1(C)Br (stereo partly specified) . State its measured log10 of EC50.
0.51

Given the compound CO[C@@H]1N(C2CC(N=[N+]=[N-])C(CO)O2)C(=O)NC(=O)[C@@]1(C)Br (stereo partly specified) , write its reported log10 of EC50.
2.45

Identify measured log10 of EC50 corresponding to CC1(Cl)C(=O)NC(=O)N([C@H]2C[C@H](N=[N+]=[N-])[C@@H](CO)O2)C1N=[N+]=[N-] (stereo partly specified)
3.17

Consider the compound CCO[C@@H]1N(C2CC(N=[N+]=[N-])C(CO)O2)C(=O)NC(=O)[C@@]1(C)Br (stereo partly specified) . State its measured log10 of EC50.
1.37

For the compound CO[C@@H]1N(C2CC(N=[N+]=[N-])C(CO)O2)C(=O)NC(=O)[C@@]1(C)I (stereo partly specified) , report log10 of EC50.
0.71
